B1: HDV Ribozyme (parent)
chain: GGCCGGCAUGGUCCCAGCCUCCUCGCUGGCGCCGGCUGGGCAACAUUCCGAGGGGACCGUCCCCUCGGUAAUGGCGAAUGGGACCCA

Variants of: B1
Assay: self-cleavage, relative activity (ratio to wild type); higher = more cleavage; co-transcriptional
Known self-cleavage of a selection of variants

Form field self-cleavage, entry GGUCGGCAUGGUCCCAGCCUCCUCGCUGGCGCCGGCUGGGCAACAUUCCUAGGGGACCGUCCCCUCGGUAAUGGCGAAUGGGACCCA [C3U G50U] : 0.728

Form field self-cleavage, entry GGCCGGCAUGGUCCCAGCCUACUCGCUGGCGCCGGCUGGGCAACAUUCCGAGGGGACCGUCCCCUCGGUAAUGGCGACUGGGACCCA [C21A A78C] : 0

Form field self-cleavage, entry GGCCGGCAUGGUCGCAGCCUCCUCGCUGGCGCCGGCUGGGCAACAUACCGAGGGGACCGUCCCCUCGGUAAUGGCGAAUGGGACCCA [C14G U47A] : 0

Form field self-cleavage, entry GGCCGGCAUGGUCCCAGCCUCCUCGCUGGCCCCGGCUGGGCAACAUUCCGAGGGGACCGUCCCCUCGGUAAUGGGGAAUGGGACCCA [G31C C75G] : 0.0396

Form field self-cleavage, entry GGCCGGCAUGGUCCCAGCCUCCUCGCUGGCGCCGGCUGGGCAACAUUCCGAGGGGACUGUCCCCUCGGUAAUUGCGAAUGGGACCCA [C58U G73U] : 0.343

Form field self-cleavage, entry GGCCGGCAUGGUCCCAGCCUCCUCGCUGACGCCGGCUGGGUAACAUUCCGAGGGGACCGUCCCCUCGGUAAUGGCGAAUGGGACCCA [G29A C41U] : 0.25
